tested target: Cross-linked His-CAhex: disulfide-stabilized hexamer of 6-His-CA(A14C/E45C/W184A/M185A) (HIV-1)
experiment notes: SPR; Reichert 4-SPR; cross-linked His-CAhex immobilised on an NTA chip via the C-terminal His-tag; peptides 3.9 μM to 2 mM; 0.01 M HEPES pH 7.4, 0.15 M NaCl, 0.05% v/v Surfactant P20; simple kinetic model
property name: Kd (µM)
Dear colleague, please return just the value in µM, with no unit written.

Incoming: Find the recorded Kd belonging to GPLLPGQSFGGPSVS [SEC24C_(228-242) 15-mer FG peptide] and report it.
Outgoing: 1070
